# procedure summary: Clearance in Balb/c mouse at 5 mg/kg, iv by LC-MS/MS analysis
# Assay type: ADME, organism-based
# experimental conditions: in vivo
measured attribute: clearance (mL/min/kg)
The response must be a number in mL/min/kg with no trailing unit.

Reported clearance, compound `COc1cc2c(cc1-c1c(C)noc1C)[nH]c1nc(C)nc(Nc3cc(C4CC4)nn3C)c12` : ____ 20.8

---

# target system: Bromodomain adjacent to zinc finger domain protein 2B (Homo sapiens, UniProt Q9UIF8)
# Sequence (Q9UIF8 whole entry, the tested form may be a part): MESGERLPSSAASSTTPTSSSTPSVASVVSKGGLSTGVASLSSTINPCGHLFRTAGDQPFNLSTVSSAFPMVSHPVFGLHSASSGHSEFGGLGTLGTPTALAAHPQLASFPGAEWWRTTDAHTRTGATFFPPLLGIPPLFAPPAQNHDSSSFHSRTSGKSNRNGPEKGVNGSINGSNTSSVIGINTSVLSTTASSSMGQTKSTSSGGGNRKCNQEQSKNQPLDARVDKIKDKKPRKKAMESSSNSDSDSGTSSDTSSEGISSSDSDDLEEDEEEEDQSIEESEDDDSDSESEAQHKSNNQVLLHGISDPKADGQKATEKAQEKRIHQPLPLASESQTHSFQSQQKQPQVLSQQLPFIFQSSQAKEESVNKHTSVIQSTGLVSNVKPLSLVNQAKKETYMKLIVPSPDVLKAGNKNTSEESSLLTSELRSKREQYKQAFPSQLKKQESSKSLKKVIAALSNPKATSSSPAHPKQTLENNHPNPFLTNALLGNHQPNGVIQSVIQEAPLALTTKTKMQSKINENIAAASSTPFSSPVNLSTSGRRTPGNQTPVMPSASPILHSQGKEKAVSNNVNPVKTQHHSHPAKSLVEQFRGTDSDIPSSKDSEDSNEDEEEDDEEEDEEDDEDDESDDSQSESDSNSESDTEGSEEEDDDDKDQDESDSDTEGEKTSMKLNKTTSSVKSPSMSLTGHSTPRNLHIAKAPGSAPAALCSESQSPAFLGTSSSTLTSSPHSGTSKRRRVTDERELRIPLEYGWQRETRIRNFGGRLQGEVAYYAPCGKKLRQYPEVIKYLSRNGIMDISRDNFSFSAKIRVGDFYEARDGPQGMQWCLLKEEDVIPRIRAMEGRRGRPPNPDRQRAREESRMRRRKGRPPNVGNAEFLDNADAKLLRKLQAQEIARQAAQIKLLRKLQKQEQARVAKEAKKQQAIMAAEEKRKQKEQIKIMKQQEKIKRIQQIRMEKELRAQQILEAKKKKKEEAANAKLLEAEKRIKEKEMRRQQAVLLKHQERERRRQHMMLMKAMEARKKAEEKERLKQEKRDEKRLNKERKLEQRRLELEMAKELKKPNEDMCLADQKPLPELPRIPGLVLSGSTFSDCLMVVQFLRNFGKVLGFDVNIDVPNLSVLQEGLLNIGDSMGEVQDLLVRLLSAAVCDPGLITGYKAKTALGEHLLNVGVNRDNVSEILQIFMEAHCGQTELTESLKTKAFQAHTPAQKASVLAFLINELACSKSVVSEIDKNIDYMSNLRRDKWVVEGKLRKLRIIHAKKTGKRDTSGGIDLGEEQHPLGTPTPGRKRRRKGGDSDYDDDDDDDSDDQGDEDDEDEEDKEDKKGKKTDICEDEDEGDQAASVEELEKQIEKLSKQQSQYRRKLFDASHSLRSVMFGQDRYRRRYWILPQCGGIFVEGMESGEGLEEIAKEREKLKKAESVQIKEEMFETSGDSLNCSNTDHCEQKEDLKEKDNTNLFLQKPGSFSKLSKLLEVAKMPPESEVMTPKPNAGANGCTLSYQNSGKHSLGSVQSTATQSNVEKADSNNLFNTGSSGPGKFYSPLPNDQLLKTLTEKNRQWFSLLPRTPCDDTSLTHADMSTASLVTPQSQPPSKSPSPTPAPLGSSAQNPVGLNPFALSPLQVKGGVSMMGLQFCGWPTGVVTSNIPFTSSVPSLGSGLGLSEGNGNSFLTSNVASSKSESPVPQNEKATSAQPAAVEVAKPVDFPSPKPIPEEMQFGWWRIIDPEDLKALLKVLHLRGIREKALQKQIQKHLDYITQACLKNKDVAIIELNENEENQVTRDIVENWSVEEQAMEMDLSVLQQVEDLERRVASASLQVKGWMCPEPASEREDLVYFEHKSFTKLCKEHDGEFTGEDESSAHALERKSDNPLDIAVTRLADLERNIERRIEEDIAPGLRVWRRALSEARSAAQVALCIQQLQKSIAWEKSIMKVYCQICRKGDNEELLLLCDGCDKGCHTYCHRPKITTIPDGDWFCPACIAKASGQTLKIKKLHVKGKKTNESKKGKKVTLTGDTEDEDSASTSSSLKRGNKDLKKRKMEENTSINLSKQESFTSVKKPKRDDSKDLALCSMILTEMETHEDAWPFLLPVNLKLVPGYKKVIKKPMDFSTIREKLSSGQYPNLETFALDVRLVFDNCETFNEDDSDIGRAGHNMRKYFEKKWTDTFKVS
# procedure summary: Binding affinity to human BAZ2B (S2054 to S2168 residues) expressed in bacterial expression system by BROMOScan assay
pKd: −log10 of the molar value.
measured attribute: pKd

Reported pKd, compound `COc1cc2c(cc1-c1c(C)noc1C)[nH]c1nc(C)nc(Nc3cc(C4CC4)nn3C)c12` : ____ < 5.30

---

# target system: Bromodomain-containing protein 4 (Homo sapiens, UniProt O60885)
# procedure summary: Binding affinity to human BRD4 bromodomain 2 (K333 to E460 residues) expressed in bacterial expression system by BROMOscan assay
measured attribute: Kd
Quick note: unit goes after the number.

Lookup: Kd / Bromodomain-containing protein 4 (Homo sapiens, UniProt O60885) / `COc1cc2c(cc1-c1c(C)noc1C)[nH]c1nc(C)nc(Nc3cc(C4CC4)nn3C)c12` 0.8 nM

---

# target system: Nucleosome-remodeling factor subunit BPTF (Homo sapiens)
# procedure summary: Binding affinity to human FALZ (S2791 to H2911 residues) expressed in bacterial expression system by BROMOScan assay
measured attribute: Kd

Reported Kd, compound `COc1cc2c(cc1-c1c(C)noc1C)[nH]c1nc(C)nc(Nc3cc(C4CC4)nn3C)c12` : ____ > 5 µM

---

# target system: Peregrin (Homo sapiens, UniProt P55201)
# Sequence (P55201 whole entry, the tested form may be a part): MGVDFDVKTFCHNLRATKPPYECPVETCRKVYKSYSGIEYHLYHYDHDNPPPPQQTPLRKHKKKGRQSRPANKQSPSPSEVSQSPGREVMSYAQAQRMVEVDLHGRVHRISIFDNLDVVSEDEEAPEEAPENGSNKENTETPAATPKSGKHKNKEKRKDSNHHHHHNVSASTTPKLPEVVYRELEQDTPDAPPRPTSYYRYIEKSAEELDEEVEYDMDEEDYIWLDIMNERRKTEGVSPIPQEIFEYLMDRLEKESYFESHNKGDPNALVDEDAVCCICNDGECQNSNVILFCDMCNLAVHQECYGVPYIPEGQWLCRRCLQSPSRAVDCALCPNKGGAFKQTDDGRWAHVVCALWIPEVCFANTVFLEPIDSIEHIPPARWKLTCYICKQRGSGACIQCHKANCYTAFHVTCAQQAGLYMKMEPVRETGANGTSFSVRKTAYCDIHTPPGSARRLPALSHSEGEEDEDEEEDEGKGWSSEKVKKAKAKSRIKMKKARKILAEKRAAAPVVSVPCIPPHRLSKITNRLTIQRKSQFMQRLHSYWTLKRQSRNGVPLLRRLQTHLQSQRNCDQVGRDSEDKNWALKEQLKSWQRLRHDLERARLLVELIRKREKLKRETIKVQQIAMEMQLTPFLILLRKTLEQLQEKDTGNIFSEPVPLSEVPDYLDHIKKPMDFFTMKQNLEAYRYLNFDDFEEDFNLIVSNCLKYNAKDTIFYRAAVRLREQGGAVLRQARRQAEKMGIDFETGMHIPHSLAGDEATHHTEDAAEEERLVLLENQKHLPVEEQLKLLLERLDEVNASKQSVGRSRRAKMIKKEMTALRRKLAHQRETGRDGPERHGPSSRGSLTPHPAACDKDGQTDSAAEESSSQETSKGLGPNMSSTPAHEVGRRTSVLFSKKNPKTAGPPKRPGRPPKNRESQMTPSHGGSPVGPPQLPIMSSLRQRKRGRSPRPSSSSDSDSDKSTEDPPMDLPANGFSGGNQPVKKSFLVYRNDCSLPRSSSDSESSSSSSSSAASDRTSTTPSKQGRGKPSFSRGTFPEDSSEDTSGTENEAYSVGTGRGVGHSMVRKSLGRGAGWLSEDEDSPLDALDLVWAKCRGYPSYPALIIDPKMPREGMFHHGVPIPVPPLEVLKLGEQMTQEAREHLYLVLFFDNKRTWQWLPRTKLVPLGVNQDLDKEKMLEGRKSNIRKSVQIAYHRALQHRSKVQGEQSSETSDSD
# procedure summary: Binding affinity to human BRPF1 (E627 to G740 residues) expressed in bacterial expression system by BROMOScan assay
pKd: −log10 of the molar value.
measured attribute: pKd

Reported pKd, compound `COc1cc2c(cc1-c1c(C)noc1C)[nH]c1nc(C)nc(Nc3cc(C4CC4)nn3C)c12` : ____ < 5.40

---

# Test system: MOLM-13
# procedure summary: Growth inhibition of human MOLM13 cells after 4 days by WST-8 assay
# Assay type: functional, cell-based
# experimental conditions: MOLM-13, 96 h
measured attribute: IC50 (nM)
The response must be a number in nM with no trailing unit.

{"structure smiles": "COc1cc2c(cc1-c1c(C)noc1C)[nH]c1nc(C)nc(Nc3nn(C)c4c3CCCC4)c12", "result units": "nM", "IC50": 41.9}
{"structure smiles": "COc1cc2c(cc1-c1c(C)noc1C)[nH]c1nc(C)nc(Nc3cc(C(C)(C)C)nn3C)c12", "result units": "nM", "IC50": 23}
{"structure smiles": "COc1cc2c(cc1-c1c(C)noc1C)[nH]c1nc(C)nc(Nc3cc(C)nn3C)c12", "result units": "nM", "IC50": 10.3}

Reported IC50, compound `COc1cc2c(cc1-c1c(C)noc1C)[nH]c1nc(C)nc(Nc3cc(C(C)(C)C(F)(F)F)nn3C)c12` : ____ 75

Reported IC50, compound `COc1cc2c(cc1-c1c(C)noc1C)[nH]c1nc(C)nc(Nc3cc(C)n(C)n3)c12` : ____ 30.7

Reported IC50, compound `COc1cc2c(cc1-c1c(C)noc1C)[nH]c1nc(C)nc(Nc3c(C)c(C4CC4)nn3C)c12` : ____ 201

Reported IC50, compound `COc1cc2c(cc1-c1c(C)noc1C)[nH]c1nc(C)nc(Nc3cc(C)nn3C(C)C)c12` : ____ 5

Reported IC50, compound `COc1cc2c(cc1-c1c(C)noc1C)[nH]c1nc(C)nc(Nc3c4c(nn3C)CCCC4)c12` : ____ 11.3

Reported IC50, compound `COc1cc2c(cc1-c1c(C)noc1C)[nH]c1nc(C)nc(Nc3cc(C4CCC4)nn3C)c12` : ____ 26.6

Reported IC50, compound `COc1cc2c(cc1-c1c(C)noc1C)[nH]c1nc(C)nc(Nc3c4c(nn3C)CCC4)c12` : ____ 5

Reported IC50, compound `COc1cc2c(cc1-c1c(C)noc1C)[nH]c1nc(C)nc(Nc3cc(C)nn3C3CCCC3)c12` : ____ 17.7

Reported IC50, compound `COc1cc2c(cc1-c1c(C)noc1C)[nH]c1nc(C)nc(Nc3cc(C)nn3C3CCC3)c12` : ____ 38.8

Reported IC50, compound `COc1cc2c(cc1-c1c(C)noc1C)[nH]c1nc(C)nc(Nc3cc(C(F)(F)F)nn3C)c12` : ____ 56

Reported IC50, compound `CCn1nc(C)cc1Nc1nc(C)nc2[nH]c3cc(-c4c(C)noc4C)c(OC)cc3c12` : ____ 15.4

Reported IC50, compound `COc1cc2c(cc1-c1c(C)noc1C)[nH]c1nc(C)nc(Nc3cc(C4CC4)nn3C)c12` : ____ 7

Reported IC50, compound `COc1cc2c(cc1-c1c(C)noc1C)[nH]c1nc(C)nc(Nc3cc(C(C)C)nn3C)c12` : ____ 11.7

Reported IC50, compound `COc1cc2c(cc1-c1c(C)noc1C)[nH]c1nc(C)nc(Nc3cc(C)nn3C(C)(C)C)c12` : ____ 10.6

---

# target system: Bromodomain-containing protein 8 (Homo sapiens)
# Sequence (Q9H0E9 whole entry): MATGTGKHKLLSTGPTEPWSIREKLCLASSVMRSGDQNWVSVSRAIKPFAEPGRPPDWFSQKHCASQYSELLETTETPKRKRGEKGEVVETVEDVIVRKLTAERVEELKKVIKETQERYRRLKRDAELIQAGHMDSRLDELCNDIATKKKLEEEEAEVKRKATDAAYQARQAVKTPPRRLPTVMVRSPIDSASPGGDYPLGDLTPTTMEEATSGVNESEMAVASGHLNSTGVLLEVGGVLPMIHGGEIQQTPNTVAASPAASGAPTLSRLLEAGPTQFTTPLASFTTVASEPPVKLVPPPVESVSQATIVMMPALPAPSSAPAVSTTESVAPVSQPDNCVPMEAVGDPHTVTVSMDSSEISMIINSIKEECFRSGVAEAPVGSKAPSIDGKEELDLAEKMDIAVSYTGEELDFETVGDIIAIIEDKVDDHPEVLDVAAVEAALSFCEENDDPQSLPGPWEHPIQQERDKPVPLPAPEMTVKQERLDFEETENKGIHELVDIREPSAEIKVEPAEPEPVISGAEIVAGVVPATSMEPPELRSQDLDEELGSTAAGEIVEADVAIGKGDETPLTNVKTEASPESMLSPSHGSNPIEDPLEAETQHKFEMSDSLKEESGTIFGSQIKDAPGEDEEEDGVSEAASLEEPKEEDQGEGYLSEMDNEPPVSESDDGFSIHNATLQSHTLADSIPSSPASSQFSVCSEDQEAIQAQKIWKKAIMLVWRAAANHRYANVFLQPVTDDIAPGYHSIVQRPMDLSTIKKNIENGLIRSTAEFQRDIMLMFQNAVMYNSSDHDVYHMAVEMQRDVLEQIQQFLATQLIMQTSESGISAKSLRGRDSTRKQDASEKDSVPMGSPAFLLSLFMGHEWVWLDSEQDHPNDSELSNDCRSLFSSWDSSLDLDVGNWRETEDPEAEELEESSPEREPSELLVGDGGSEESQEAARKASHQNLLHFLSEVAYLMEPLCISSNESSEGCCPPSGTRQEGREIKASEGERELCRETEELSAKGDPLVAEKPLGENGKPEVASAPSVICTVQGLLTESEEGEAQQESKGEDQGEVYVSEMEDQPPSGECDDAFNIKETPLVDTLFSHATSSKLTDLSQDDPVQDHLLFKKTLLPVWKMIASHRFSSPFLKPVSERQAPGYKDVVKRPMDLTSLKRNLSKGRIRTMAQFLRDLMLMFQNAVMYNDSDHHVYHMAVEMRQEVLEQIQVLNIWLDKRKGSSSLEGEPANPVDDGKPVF
# procedure summary: Inhibition of BRD8 bromodomain 1 (unknown origin) by BROMOScan assay
measured attribute: Kd

Reported Kd, compound `COc1cc2c(cc1-c1c(C)noc1C)[nH]c1nc(C)nc(Nc3cc(C4CC4)nn3C)c12` : ____ > 5 µM

---

# key: entry, value: log10 of IC50
# target system: Bromodomain-containing protein 4 (Homo sapiens)
# procedure summary: Inhibition of FAM-labeled ZBA248 binding to recombinant human BRD4 bromodomain 1 (44 to 168 residues) expressed in Rosetta2 Escherichia coli DE3 cells after 30 mins by fluorescence polarization assay
Heads up, the numbers here are log10 of IC50 in nM units.

Below, 5 compounds whose answers are already recorded.
{"structure smiles": "COc1cc2c(cc1-c1c(C)noc1C)[nH]c1nc(C)nc(Nc3c(C)c(C4CC4)nn3C)c12", "target system": "Bromodomain-containing protein 4 (Homo sapiens)", "recorded value": 1.71}
{"structure smiles": "COc1cc2c(cc1-c1c(C)noc1C)[nH]c1nc(C)nc(Nc3nn(C)c4cc(F)ccc34)c12", "target system": "Bromodomain-containing protein 4 (Homo sapiens)", "recorded value": 1.94}
{"structure smiles": "COc1cc2c(cc1-c1c(C)noc1C)[nH]c1nc(C)nc(Nc3cc(C)nn3C)c12", "target system": "Bromodomain-containing protein 4 (Homo sapiens)", "recorded value": 0.97}
{"structure smiles": "COc1cc2c(cc1-c1c(C)noc1C)[nH]c1nc(C)nc(Nc3nn(C)c4ccncc34)c12", "target system": "Bromodomain-containing protein 4 (Homo sapiens)", "recorded value": 2.36}
{"structure smiles": "COc1cc2c(cc1-c1c(C)noc1C)[nH]c1nc(C)nc(Nc3nn(CCO)c4ccccc34)c12", "target system": "Bromodomain-containing protein 4 (Homo sapiens)", "recorded value": 0.99}

Reported log10 of IC50, compound `COc1cc2c(cc1-c1c(C)noc1C)[nH]c1nc(C)nc(Nc3nn(C)c4c(F)cccc34)c12` : ____ 1.98

Reported log10 of IC50, compound `COc1cc2c(cc1-c1c(C)noc1C)[nH]c1nc(C)nc(Nc3cc(C)nn3C(C)(C)C)c12` : ____ 0.64

---

# target system: Bromodomain-containing protein 4 (Homo sapiens)
# procedure summary: Inhibition of FAM-labeled ZBA248 binding to recombinant human BRD4 bromodomain 1 (44 to 168 residues) expressed in Rosetta2 Escherichia coli DE3 cells after 30 mins by fluorescence polarization assay
measured attribute: IC50 (nM)
The response must be a number in nM with no trailing unit.

Below, 2 molecules whose answers are already recorded.
{"structure smiles": "COc1cc2c(cc1-c1c(C)noc1C)[nH]c1nc(C)nc(Nc3cc(C4CCC4)nn3C)c12", "IC50 (nM)": 12.8}
{"structure smiles": "COc1cc2c(cc1-c1c(C)noc1C)[nH]c1nc(C)nc(Nc3cc(C(C)(C)C)nn3C)c12", "IC50 (nM)": 10.5}

Reported IC50, molecule `COc1cc2c(cc1-c1c(C)noc1C)[nH]c1nc(C)nc(Nc3cc(C(C)(C)C(F)(F)F)nn3C)c12` : ____ 13.8

Reported IC50, molecule `COc1cc2c(cc1-c1c(C)noc1C)[nH]c1nc(C)nc(Nc3nn(C)c4ccccc34)c12` : ____ 9.1

Reported IC50, molecule `COc1cc2c(cc1-c1c(C)noc1C)[nH]c1nc(C)nc(Nc3cc(C)n(C)n3)c12` : ____ 24.9
